Species: Rattus norvegicus
Assay: Open TG-GATES - Regimen: Daily Repeat
Type: toxicity, organism-based, Sprague-Dawley
Parameters: regimen Daily Repeat, gender Male, age 6 weeks
Settings: in vivo, po, 0 mg/kg, […], tissue Plasma, route gavage, dose level Control, time 7 day
property-measured: BUN (mg/dL)
Give your result in mg/dL as a bare value.

What measured BUN goes with `O=C(OC[C@H]1O[C@@H](OC(=O)c2cc(O)c(O)c(OC(=O)c3cc(O)c(O)c(O)c3)c2)[C@H](OC(=O)c2cc(O)c(O)c(OC(=O)c3cc(O)c(O)c(O)c3)c2)[C@@H](OC(=O)c2cc(O)c(O)c(OC(=O)c3cc(O)c(O)c(O)c3)c2)[C@@H]1OC(=O)c1cc(O)c(O)c(OC(=O)c2cc(O)c(O)c(O)c2)c1)c1cc(O)c(O)c(OC(=O)c2cc(O)c(O)c(O)c2)c1` ?
19

GET /values?readout=BUN&item= `Cc1nnc2n1-c1ccc(Cl)cc1C(c1ccccc1Cl)=NC2`
16.8
